Cited source: PubChem BioAssay AID1963834

- Tested on: 873145-292-R-J1-PDC complex spheroid viability;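 further: luminescence signal used as surrogate for viable cell content; spheroids exposed to compounds for 7 days before viability readout; 100% = DMSO vehicle control viability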
- Protocol: Anticancer human tumor 873145-292-R-J1-PDC patient-derived renal clear cell carcinoma cell line growth inhibition [POLQ]
- Particulars: second compound 0.0316 µM; first compound 0.1 µM; active compounds read low
Measurement Name: viability, T/C (%)
Respond numerically; units are % and should not be typed.

Example entries begin here.
COc1cc(C2c3cc4c(cc3C(OC3OC5COC(C)OC5C(O)C3O)C3COC(=O)C23)OCO4)cc(OC)c1O (stereo not given) + COC1C(OC(N)=O)C(O)C(Oc2ccc3c(O)c(NC(=O)c4ccc(O)c(CC=C(C)C)c4)c(=O)oc3c2C)OC1(C)C: 108
C=CC(=O)N1CCN(c2nc(=O)n(-c3c(C)ccnc3C(C)C)c3nc(-c4c(O)cccc4F)c(F)cc23)C(C)C1 (stereo not given) + COC1C(OC(N)=O)C(O)C(Oc2ccc3c(O)c(NC(=O)c4ccc(O)c(CC=C(C)C)c4)c(=O)oc3c2C)OC1(C)C: 97.9
COc1cc2cc(C(=O)CCC(=O)O)sc2cc1OC + Nc1ccc(C#CCN(C(=O)Cc2ncc(C(F)(F)F)cc2C(F)(F)F)c2ccc(F)cc2)nn1: 116

Prompt line: Report viability, T/C for CC1COCCN1c1cc(C2(S(C)(=N)=O)CC2)nc(-c2ccnc3[nH]ccc23)n1 (stereo not given) + Nc1ccc(C#CCN(C(=O)Cc2ncc(C(F)(F)F)cc2C(F)(F)F)c2ccc(F)cc2)nn1 please.
Response line: 99.2

Prompt line: viability, T/C lookup needed for CC1COCCN1c1cc(-c2ccnn2C)c2ccnc(-c3ccn[nH]3)c2n1 (stereo not given) + Nc1ccc(C#CCN(C(=O)Cc2ncc(C(F)(F)F)cc2C(F)(F)F)c2ccc(F)cc2)nn1 , thanks.
Response line: 89.8
